- EXPERIMENTAL_SYSTEM: S1P1 receptor (Homo sapiens, UniProt P21453)
- Sequence (P21453 whole entry): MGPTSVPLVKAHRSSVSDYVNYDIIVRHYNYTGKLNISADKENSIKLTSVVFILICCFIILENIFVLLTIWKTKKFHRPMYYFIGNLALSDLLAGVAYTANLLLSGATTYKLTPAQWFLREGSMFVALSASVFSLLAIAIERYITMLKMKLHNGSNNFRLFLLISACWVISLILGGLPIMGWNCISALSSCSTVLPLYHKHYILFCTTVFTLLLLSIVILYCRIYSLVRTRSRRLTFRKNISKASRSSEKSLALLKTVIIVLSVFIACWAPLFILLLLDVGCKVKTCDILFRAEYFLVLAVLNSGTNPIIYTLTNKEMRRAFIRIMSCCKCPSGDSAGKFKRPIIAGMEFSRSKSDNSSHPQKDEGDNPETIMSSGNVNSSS
- EXPERIMENTAL_DETAILS: 35S-GTPγS binding, membranes from CHO cells expressing S1P1
- ASSAY_SETUP: CHO cell membranes expressing S1P1
pEC50: −log10 of the molar value.
Values of pEC50 greater than or equal to 7 map to t; values below map to f.

SMILES_REPR | CAT
Cc1cccc(-c2noc(-c3nnn(-c4ccccc4F)c3-c3ccncc3)n2)c1 | t
Fc1ccccc1-c1noc(-c2nnn(-c3ccccc3F)c2-c2cccnc2)n1 | f
OCc1cccc(-c2noc(-c3nnn(-c4ccccc4F)c3-c3ccncc3)n2)c1 | t
O=C(O)CCNCc1ccc(-c2noc(-c3nnn(-c4ccccc4F)c3-c3ccncc3)n2)cc1 | t
COCc1c(-c2nc(-c3ccccc3F)no2)nnn1-c1ccccc1F | f
COCCNCc1ccc(-c2noc(-c3nnn(-c4ccccc4F)c3-c3ccncc3)n2)cc1 | t
Fc1ccccc1-n1nnc(-c2nc(-c3ccc(Cn4cncn4)cc3)no2)c1-c1ccncc1 | t
COc1ccccc1-c1noc(-c2nnn(-c3ccccc3F)c2-c2ccccn2)n1 | f
